# System: Streptococcus pneumoniae ATCC 49619
# assay_summary: broth macrodilution volatilization method (liquid and vapor phase MIC)
# Assay type: cell-based
# applied_conditions: Streptococcus pneumoniae, ATCC49619; liquid phase, 37 °C, 24 h; read-out: Minimal Inhibitory Concentration, Broth
value_type: MIC (mg/L)
Answers are plain numbers, in mg/L.

{"molecule": "CC1(C)S[C@@H]2[C@H](NC(=O)[C@H](N)c3ccc(O)cc3)C(=O)N2[C@H]1C(=O)O [amoxicillin, reference compound]", "MIC, mg/L": 0.25}
{"molecule": "CC1=CC(=O)C(C(C)C)=CC1=O", "MIC, mg/L": 16}
{"molecule": "Cc1cc(O)c(C(C)C)cc1O [thymohydroquinone]", "MIC, mg/L": 16}

// moving on: another record for MIC
Give a short answer stating reported MIC for `CC(C)c1cccc(=O)c(O)c1` .
64
